Target: Tyrosine-protein kinase receptor TYRO3 (Homo sapiens)
Sequence (Q06418 whole entry): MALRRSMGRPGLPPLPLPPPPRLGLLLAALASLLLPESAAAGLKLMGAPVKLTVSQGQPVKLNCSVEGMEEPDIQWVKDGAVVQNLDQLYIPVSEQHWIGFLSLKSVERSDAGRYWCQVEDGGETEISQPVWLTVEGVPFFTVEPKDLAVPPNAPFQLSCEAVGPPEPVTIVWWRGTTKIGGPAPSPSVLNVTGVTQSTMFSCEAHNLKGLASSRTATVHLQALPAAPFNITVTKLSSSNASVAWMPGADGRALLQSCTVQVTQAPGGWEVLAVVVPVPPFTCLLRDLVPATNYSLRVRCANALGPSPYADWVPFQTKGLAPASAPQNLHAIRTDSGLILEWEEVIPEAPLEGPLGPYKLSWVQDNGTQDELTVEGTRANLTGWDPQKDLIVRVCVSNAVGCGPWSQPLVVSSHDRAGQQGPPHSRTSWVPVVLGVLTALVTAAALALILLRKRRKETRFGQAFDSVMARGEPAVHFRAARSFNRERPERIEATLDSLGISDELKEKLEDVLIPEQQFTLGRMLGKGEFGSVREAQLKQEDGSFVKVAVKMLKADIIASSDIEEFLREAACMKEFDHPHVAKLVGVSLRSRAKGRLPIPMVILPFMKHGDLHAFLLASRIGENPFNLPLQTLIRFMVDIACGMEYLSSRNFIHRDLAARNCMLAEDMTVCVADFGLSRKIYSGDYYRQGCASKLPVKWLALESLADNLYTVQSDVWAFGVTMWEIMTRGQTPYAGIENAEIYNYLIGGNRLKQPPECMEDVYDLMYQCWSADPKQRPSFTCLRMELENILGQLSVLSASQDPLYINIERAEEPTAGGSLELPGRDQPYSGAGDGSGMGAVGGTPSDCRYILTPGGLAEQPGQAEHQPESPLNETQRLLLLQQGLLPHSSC
Assay: Inhibition of FLAG-tagged Tyro3 (unknown origin) transfected in Cos-7 cells assessed as phosphorylation level incubated for 1 hr by ELISA
ATTRIBUTE MEASURED: IC50

Consider the worked cases shown below.
| CHEMICAL SMILES | ATTRIBUTE MEASURED | VALUE REPORTED |
| --- | --- | --- |
| Cc1cc(-c2c(C)nn(C)c2C)cnc1-c1nnc(N(C)Cc2ccc3ncc(-c4ccc(CN(C)C)cc4)n3c2)o1 | IC50 | > 31.6 µM |
| Cc1cc(-c2c(C)nn(C)c2C)ccc1-c1nnc(N(C)Cc2ccc3ncc(-c4cnn(CCN(C)C)c4)n3c2)o1 | IC50 | 12.6 µM |
| Cc1cc(-c2c(C)nn(C)c2C)cnc1-c1nnc(N(C)Cc2ccc3nccn3c2)o1 | IC50 | > 31.6 µM |
| Cc1cc(-c2c(C)nn(C)c2C)cnc1-c1nnc(N(C)Cc2ccc3ncc(-c4cccc(CN(C)C)c4)n3c2)o1 | IC50 | > 31.6 µM |
| Cc1cc(-c2c(C)nn(C)c2C)ccc1-c1nnc(N(C)Cc2ccc3ncc(C(=O)N(C)C)n3c2)o1 | IC50 | 25.1 µM |

Provide value of IC50 for this record tested with Tyrosine-protein kinase receptor TYRO3 (Homo sapiens): "Cc1cc(-c2c(C)nn(C)c2C)ccc1-c1nnc(N(C)Cc2ccc3nccn3c2)o1"
> 31.6 µM

Now consider "Cc1cc(-c2c(C)nn(C)c2C)cnc1-c1nnc(N(C)Cc2ccc3ncc(-c4ccc(CN(C)C)nc4)n3c2)o1" .
> 31.6 µM

Now consider "Cc1cc(-c2c(C)nn(C)c2C)ccc1-c1nnc(N(C)Cc2ccc3ncc(-c4ccccc4)n3c2)o1" .
20 µM

Now consider "Cc1cc(-c2c(C)nn(C)c2C)ccc1-c1nnc(N(C)Cc2ccc3ncc(C4CCN(C)CC4)n3c2)o1" .
> 31.6 µM

Now consider "Cc1cc(-c2c(C)nn(C)c2C)ccc1-c1nnc(N(C)Cc2ccc3ncc(-c4cnn(C)c4)n3c2)o1" .
12.6 µM

Now consider "Cc1cc(-c2c(C)nn(C)c2C)cnc1-c1nnc(N(C)Cc2ccc3ncc(-c4cnn(CCN(C)C)c4)n3c2)o1" .
> 31.6 µM

Now consider "Cc1cc(-c2c(C)nn(C)c2C)cnc1-c1nnc(N(C)Cc2ccc3ncc(-c4ccc(CN(C)C)cn4)n3c2)o1" .
> 31.6 µM

These entries and their values trace back to ChEMBL document CHEMBL4825753.
